B1: CPEB3 Ribozyme (parent)
chain: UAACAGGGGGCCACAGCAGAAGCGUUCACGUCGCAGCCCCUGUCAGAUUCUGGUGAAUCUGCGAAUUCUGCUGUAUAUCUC

variants of: B1; test: self-cleavage, relative activity (ratio to wild type); higher = more cleavage; in vitro, sequencing
Output true (1) for self-cleavage not less than 0.5; output false (0) otherwise.

>>> class("G7A A15G")
"false (0)"
>>> class("A64U U69G")
"false (0)"
>>> class("C38U A57G")
"false (0)"
>>> class("C34A U60C")
"false (0)"
>>> class("A13G G55C")
"false (0)"
>>> class("C23A U60C")
"false (0)"
>>> class("C40A U67C")
"false (0)"
>>> class("A3C C39U")
"true (1)"
>>> class("G10C U74G")
"false (0)"
>>> class("C12A A13C")
"true (1)"
>>> class("C29G G55A")
"false (0)"
>>> class("U41C U76G")
"true (1)"
>>> class("G33U U58C")
"false (0)"
>>> class("G10C G53A")
"false (0)"
>>> class("A20G C81A")
"true (1)"
>>> class("C29A U54C")
"false (0)"
>>> class("G63U U78C")
"true (1)"
>>> class("G53A U58G")
"false (0)"
>>> class("A20G G52U")
"true (1)"
>>> class("C29U U72C")
"true (1)"
>>> class("A5G U66C")
"false (0)"
>>> class("A28U G73A")
"true (1)"
>>> class("G46A U49A")
"false (0)"
>>> class("G8U C62U")
"false (0)"
>>> class("A35U G36A")
"false (0)"
>>> class("A13C C68U")
"true (1)"
>>> class("A56C U60C")
"false (0)"
>>> class("U51A U80C")
"true (1)"
>>> class("G19U A56U")
"false (0)"
>>> class("G10C U49C")
"false (0)"
>>> class("A5U U72G")
"true (1)"
>>> class("C39U U72A")
"true (1)"
>>> class("A18G C68A")
"false (0)"
>>> class("A15G U76A")
"true (1)"
>>> class("C29A G55A")
"false (0)"
>>> class("A45G G70A")
"false (0)"
>>> class("G10U U78C")
"false (0)"
>>> class("A15C U51A")
"true (1)"
>>> class("A64G U67A")
"false (0)"
>>> class("A45U U74G")
"true (1)"
>>> class("A35U C81U")
"true (1)"
>>> class("U26G U76C")
"false (0)"
>>> class("G6A U31A")
"false (0)"
>>> class("C11U G19U")
"false (0)"
>>> class("U31C U54A")
"true (1)"
>>> class("C37A U60A")
"false (0)"
>>> class("A3U C12A")
"true (1)"
>>> class("A13G C68U")
"true (1)"
>>> class("G24U U49A")
"false (0)"
>>> class("A3U C40A")
"true (1)"
>>> class("A65G U76C")
"true (1)"
>>> class("C34U U51G")
"true (1)"
>>> class("U48A A77G")
"true (1)"
